- protocolNotes: qHTS for Inhibitors of Inflammasome Signaling: IL-1-beta AlphaLISA Primary Screen; also: % is scaled to controls: 0 for no effect and ±100 for the full control effect
- conditionSet: THP-1 LPS/ATP IL-1B secretion, 16 h; at 57.5 µM, hits give low values
Hit rate of the full screen: of about 360,000 compounds, about 17,000 (4.7%) were called active. About 5% were inconclusive and are not listed. What follows is part of a selection rich in actives, with near analogues and random picks from the rest.
metric: activity change

# count of solved cases: 9
Cc1c(NS(=O)(=O)c2ccc(NC3CCCC3)c([N+](=O)[O-])c2)c(=O)n(-c2ccccc2)n1C
-9.94% (inactive)
CC1CCC2(CC1)NC(=O)N(CC(=O)NCc1ccco1)C2=O (stereo not given)
5.54% (inactive)
CCCCn1nnnc1NCc1cc(OC)c(OC)c(OC)c1
25.2% (inactive)
Cc1nccn1-c1ccc(NC(=O)[C@H]2O[C@@H](n3ccc(=O)[nH]c3=O)[C@H](O)[C@@H]2O)cc1
20.2% (inactive)
COc1cccc(NC(=O)CN(C)C(=O)CSCc2nc3scc(-c4cccs4)c3c(=O)[nH]2)c1
-57.4% (active)
Cc1cc([N+](=O)[O-])ccc1NC1CCCC1
-6.41% (inactive)
COc1cccc(NC(=O)CN(C)C(=O)CSC(=S)N2CCCC2)c1
6.49% (inactive)
CC(O)CN(Cc1ccc(Cl)cc1)CC(C)O (stereo not given)
-2.11% (inactive)
Cc1cc(C=O)c(C)n1-c1ccc(NC2CCCCC2)c([N+](=O)[O-])c1
-93.9% (active)

As a next step, examine the compound that follows.
In: # get_value(readout='activity change', item= `COc1ccc(S(=O)(=O)N2CCC(C(=O)NCCC(=O)NCCc3cccc(F)c3)CC2)cc1` )
Out: -8.46% (inactive)

---

- protocolNotes: qHTS for Inhibitors of Inflammasome Signaling: IL-1-beta AlphaLISA Primary Screen
- conditionSet: THP-1 LPS/ATP IL-1B secretion, 16 h; at 57.5 µM, hits give low values
The whole screen tested about 360,000 compounds, of which about 17,000 (4.7%) were called active. Roughly 5% stayed inconclusive and do not appear here. The sample holds actives, similar compounds and a random draw of the others, so the mix is not that of the screen.
Recorded measurements of activity change, one per entry

# count of solved cases: 3
O=C(CN1CCN(C(=O)c2ccco2)CC1)Nc1ccc2c(c1)OCO2
21.4% (inactive)
CC(C)(C)C1C/C(=C/c2ccco2)C(=O)/C(=C/c2ccco2)C1 (stereo unspecified)
-67.3% (active)
O=C(CSc1ncn[nH]1)Nc1nc2c(F)c(F)c(F)cc2s1
-7.33% (inactive)

In: # get_value(readout='activity change', item= Cc1ccc(C(NC(=O)C2CCN(CCOc3ccc(Cl)cc3Cl)CC2)c2ccccn2)cc1 (stereo unspecified) )
Out: -68.4% (active)

In: Proceed to `COc1cc(OC)cc(-c2nc3ccccc3c(=O)n2NC(=O)c2cccnc2Cl)c1`
Out: -0.823% (inactive)

---

Recorded measurements of activity change, one per entry
- protocolNotes: qHTS for Inhibitors of Inflammasome Signaling: IL-1-beta AlphaLISA Primary Screen
- conditionSet: THP-1 LPS/ATP IL-1B secretion, 16 h; at 57.5 µM, hits give low values
The whole screen tested about 360,000 compounds, of which about 17,000 (4.7%) were called active. Roughly 5% stayed inconclusive and do not appear here. The sample holds actives, similar compounds and a random draw of the others, so the mix is not that of the screen. Where a SMILES comes first, the peptide text is derived from it. The star is where a group is joined. Bz = O=C(c1ccccc1)*
Please give a number only; it is taken to be in %.

O=C(NC(Cc1ccccc1)C(=O)N1CCCC1C(=O)O)c1ccccc1 (stereo not drawn) (Bz-Phe-Pro-OH; configuration not given here)
6.95
COc1ccc(C(=O)N2CCCCC2c2cc(C(=O)Nc3ccc(F)c(Cl)c3)no2)cc1 (centres undefined)
-4.59
O=C(NCc1ccccc1)C1=C[C@@H](c2ccc(C(F)(F)F)cc2)C[C@@H](OCc2ccc(CO)cc2)O1
-53.9
O=C(C1=C[C@H](C2CC2)C[C@H](OCc2ccc(CO)cc2)O1)N1CCN(Cc2ccccc2)CC1
-22.6
O=c1[nH]cnc2c1c(-c1ccccc1)cn2-c1ccc(F)cc1
-91.8

In: # get_value(readout='activity change', item= COc1cccc(CC2(CO)CCCN(Cc3ccc(OC(F)F)cc3)C2)c1 (centres undefined) )
Out: -9.05

In: Proceed to CN(Cc1ccccc1F)C(=O)C(Cc1ccccc1)NC(=O)c1ccccc1 (centres undefined)
Out: -84.2

In: Proceed to O=C(NC(Cc1ccccc1)C(=O)N1CCCC(C(F)(F)F)C1)c1ccccc1 (centres undefined)
Out: 1.82

In: Proceed to `O=C(C1=C[C@H](c2coc3ccccc3c2=O)C[C@H](OCc2ccc(CO)cc2)O1)N1CCN(Cc2ccccc2)CC1`
Out: -63.5
